Assay: Quantitative High-Throughput drug screen in 47 multiple myeloma cell lines against the NCATS MIPE library collection: LP1_DSMZ cell viability assay (AID 1918982); note: nearly all actives have a fitted effect of over 35% in size; note: potency is the fitted concentration of half-maximal effect
Conditions: LP1 myeloma viability, CellTiter-Glo ATP luminescence, 48 h; series mostly up to 45.8 µM
Results filed as inconclusive are left out. Calls of active or inactive are those of the source. Calls come from the whole dose curve; as a rule, active = well fitted cell-killing curve with a large enough effect; inconclusive = small, poorly fitted or top-dose-only effect, or effect the other way; inactive = no such curve, though single readings can be large or run the other way.
Measured attribute: Potency

The cases that follow already have their Potency on record.
>>> observed_result("CCC1=C[C@@H]2CN(C1)Cc1c([nH]c3ccccc13)[C@@](C(=O)OC)(c1cc3c(cc1OC)N(C)[C@@H]1[C@@](O)(C(=O)OC)[C@H](OC(C)=O)[C@]4(CC)C=CCN5CC[C@]31[C@@H]54)C2")
"0.0332 µM (active)"
>>> observed_result("COCCn1c2c([n+](Cc3cnccn3)c1C)C(=O)c1ccccc1C2=O")
"0.0132 µM (active)"
>>> observed_result("c1cc(-c2cnn3cc(-c4ccc(OCCN5CCCCC5)cc4)cnc23)ccn1")
"13.2 µM (active)"
>>> observed_result("C[C@@H](Oc1cc(-c2cnn(C3CCNCC3)c2)cnc1N)c1c(Cl)ccc(F)c1Cl")
"14.8 µM (active)"
>>> observed_result("Cc1cc(C(=O)N2CCN(c3cccc(Cl)c3)CC2)n(-c2ccccc2)n1")
"5.26 µM (active)"

Query block: Note Potency for the molecule shown: `Cc1c(C)n(Cc2ccc(-c3ccccc3C(=O)O)cc2)c2ccc(C(=O)N[C@@H](C)c3ccc([N+](=O)[O-])cc3)cc12`
Result block: inactive

Query block: Input `CN(C)c1nc(Cc2ccc(NC(=O)c3ccc4ccccc4c3)cc2)nc(Cl)c1CC(=O)O` , output reported Potency.
Result block: inactive

Query block: Specify Potency for `COc1cc2c(Oc3ccc(-c4cnc(Nc5ccc(F)cc5)n(C)c4=O)cc3F)ccnc2cc1OCCCN1CCOCC1` and stop.
Result block: 11.8 µM (active)

Query block: Retrieve Potency measured for `Cc1nc2ccc(CN(C)c3ccc(C(=O)N[C@@H](CCC(=O)O)C(=O)O)s3)cc2c(=O)[nH]1` and print it.
Result block: inactive

Query block: Provide only the value of recorded Potency for `O=C(Nc1nc2cccc(-c3ccc(CN4CCS(=O)(=O)CC4)cc3)n2n1)C1CC1`
Result block: 20.9 µM (active)

Query block: Please report the measured Potency for `CCS(=O)(=O)c1cccc(-c2cc(C(=O)NC3CCN(C)CC3)c(C)c3[nH]c4ncc(C)cc4c23)c1`
Result block: 7.43 µM (active)

Query block: Please indicate Potency recorded for `CC(C)c1nn(-c2c(Cl)cccc2Cl)c2nc(Cc3ccc(OCCO)cc3)[nH]c(=O)c12`
Result block: 0.132 µM (active)

Query block: Report Potency, nothing else, for this molecule: `CS(=O)(=O)c1ccc(-c2cnc(N)c(C(=O)Nc3ccccc3)n2)cc1`
Result block: inactive

Query block: Determine its reported Potency: COc1ccc(-c2cc3c(C)nc(N)nc3n(C3CCC(OCCO)CC3)c2=O)cn1 (configuration not stated)
Result block: 0.0148 µM (active)

Query block: Report Potency, nothing else, for this molecule: `COc1cc2c(Oc3ccc(NC(=O)C4(C(=O)Nc5ccc(F)cc5)CC4)cc3F)ccnc2cc1OCCCN1CCOCC1`
Result block: 16.6 µM (active)

Query block: Respond only with Potency recorded for CC1COC2(CCN(c3nc(=O)c4cc(C(F)(F)F)cc([N+](=O)[O-])c4s3)CC2)O1 (configuration not stated)
Result block: inactive

Query block: Tell me Potency reported for `CCN(CC)CCCCNc1ncc2cc(-c3cc(OC)cc(OC)c3)c(NC(=O)NC(C)(C)C)nc2n1`
Result block: 16.6 µM (active)

Data credit: PubChem BioAssay (NCATS)
